assay: in vivo; conditions: mouse
quantity: LD50 (mg/kg)
Expressed in mg/kg, but write only the number.

Ask | For Cc1ccc(NC(=O)CC23CCCN2CCC3)c(C)c1 , what is its reported LD50?
Reply | 398

###

tested on: ddY strain male mice; test: in vivo; details: mouse
Param label: returns 1.0 when LD50 < 400 mg/kg, returns 0.0 otherwise, including exact equality.

Ask | API: query returns whether the compound falls strictly under 400 mg/kg in LD50. Query: O=C(CC12CCCN1CCC2)Nc1c(Cl)cccc1Cl
Reply | 1.0

Ask | Given COc1ccccc1NC(=O)CC12CCCN1CCC2 , is recorded LD50 strictly lower than 400 mg/kg?
Reply | 1.0

Ask | LD50 under 400 mg/kg? Item: COc1cccc(NC(=O)CC23CCCN2CCC3)c1
Reply | 0.0

Ask | Decide: LD50 of Cc1ccc(NC(=O)CC23CCCN2CCC3)cc1C strictly below 400 mg/kg?
Reply | 0.0

###

test system: ventricular arrhythmias induced by chloroform; test: Antiarrhythmic activity: prevention of chloroform-induced ventricular flutter and fibrillation in mice; settings: ratio of LD50 and ED50
Checkbox rule: Therapeutic index lower than 7 = y; Therapeutic index not lower than 7 = n.

Ask | Threshold test, Therapeutic index < 7: Cc1cccc(NC(=O)CC23CCCN2CCC3)c1C
Reply | n

Ask | Quick check: Therapeutic index of Cc1cc(C)c(NC(=O)CC23CCCN2CCC3)c(C)c1 under 7?
Reply | n

Ask | Is Therapeutic index strictly under 7 for the entry Cc1ccc(NC(=O)CC23CCCN2CCC3)cc1C ?
Reply | n

Ask | Is 7 strictly greater than the compound's reported Therapeutic index? compound: COc1ccc(NC(=O)CC23CCCN2CCC3)cc1
Reply | y

Ask | Is 7 strictly greater than the compound's reported Therapeutic index? compound: COc1ccc(OC)c(NC(=O)CC23CCCN2CCC3)c1
Reply | y

Ask | Determine whether this compound shows Therapeutic index lower than 7 (ties excluded): CCc1cccc(CC)c1NC(=O)CC12CCCN1CCC2
Reply | n

Ask | Does Nc1ccccc1NC(=O)CC12CCCN1CCC2 have Therapeutic index strictly under 7?
Reply | y

Ask | Hi there! Is Therapeutic index for O=C(CC12CCCN1CCC2)Nc1ccccc1Br below 7, do you know?
Reply | n

Ask | Find out if reported Therapeutic index for Cc1ccc(C)c(NC(=O)CC23CCCN2CCC3)c1 is less than 7
Reply | y

###

tested on: ddY strain male mice; assay: in vivo; settings: mouse
Criterion: LD50 strictly less than 400 mg/kg. Met: 1. Not met: 0.

Ask | Confirm or reject: LD50 of COc1ccc(NC(=O)CC23CCCN2CCC3)cc1 [Compound 7] lies strictly below 400 mg/kg
Reply | 1

Ask | Here's an entry: Nc1ccccc1NC(=O)CC12CCCN1CCC2 [Compound 8] . Is its LD50 below 400 mg/kg?
Reply | 0

Ask | Input Cc1cccc(NC(=O)CC23CCCN2CCC3)c1C [Compound 9] ; condition: LD50 strictly below 400 mg/kg. Does it hold?
Reply | 0

Ask | Please determine if Cc1ccc(NC(=O)CC23CCCN2CCC3)cc1 [Compound 2] is below 400 mg/kg in terms of LD50.
Reply | 0

Ask | # check: LD50 < 400 mg/kg for O=C(CC12CCCN1CCC2)Nc1ccccc1Cl [Compound 3]
Reply | 1

Ask | Hello, is LD50 of the following molecule strictly smaller than 400 mg/kg? Cc1ccccc1NC(=O)CC12CCCN1CCC2 [Compound 1]
Reply | 1

Ask | Determine whether this molecule shows LD50 lower than 400 mg/kg (ties excluded): Cc1cc(C)c(NC(=O)CC23CCCN2CCC3)c(C)c1 [Compound 18]
Reply | 1

Ask | # check: LD50 < 400 mg/kg for Cc1cc(C)cc(NC(=O)CC23CCCN2CCC3)c1 [Compound 14]
Reply | 1

Ask | Does the reported LD50 of the following molecule sit strictly below 400 mg/kg? COc1ccc(OC)c(NC(=O)CC23CCCN2CCC3)c1 [Compound 15]
Reply | 1

Ask | Regarding CCc1cccc(CC)c1NC(=O)CC12CCCN1CCC2 [Compound 17] , kindly confirm whether its LD50 is beneath 400 mg/kg.
Reply | 1

Ask | Does the reported LD50 of the following molecule sit strictly below 400 mg/kg? O=C(CC12CCCN1CCC2)Nc1ccccc1Br [Compound 4]
Reply | 0
